- assay.overview: Cytotoxic Profiling in NIH 3T3 Cell Line of Diverse Libraries Using Quantitative High-Throughput Screening; also: nearly all actives have a fitted effect of over 55% in size; also: potency is read from the fitted curve at half-maximal effect
- assay.conditions: NIH 3T3 viability, CellTiter-Glo ATP luminescence, 48-72 h; series mostly up to 96.7 µM
Screen size: about 94,000 compounds; about 4,000 (4.3%) were called active. Inconclusive results (about 29%) are left out. The entries come from a sample that favours actives as a whole.
reported.endpoint: Potency

Reference set, count: 6
CC1=C[C@@H](CN2CCC(O)CC2)[C@H](C(C)C)C[C@H]1Cc1nnc(-c2ccccc2F)o1 = 112 µM (active)
COc1cccc(-c2cc(C(=O)Nc3cccc(Cl)c3)c3cnn(C)c3n2)c1 = inactive
COc1cccc(NC(=O)c2cnc3n[nH]c(-c4ccc(OC)cc4C)c3n2)c1 = 50.1 µM (active)
Cc1noc(CC2CCOC3(CCN(C(=O)c4ccc(C#N)cc4)CC3)C2)n1 (stereo unspecified) = inactive
O=C1CCN(C(=O)c2ccc3ccccc3n2)CCCCCCN1 = inactive
COCCn1c(C)cc(C(=O)N2CCCCCCNC(=O)CC2)c1C = inactive

Entry under test: `COc1ccccc1C(=O)NCc1ccnc2[nH]ccc12` . Its Potency was inactive

Entry under test: `CC1=C[C@@H](CN2CCN(CCO)CC2)[C@H](C(C)C)C[C@H]1Cc1nnc(-c2ccc(C)cc2)o1` . Its Potency was 39.8 µM (active)

Entry under test: `COc1ccc(C(=O)NC[C@@H]2C=C(C)[C@H](Cc3nnc(-c4cncn4C)o3)C[C@H]2C(C)C)cc1` . Its Potency was 25.1 µM (active)

Entry under test: Cc1ccc(CN2CCC3(Cc4ccccc4CNC3=O)C2)cc1 (stereo unspecified) . Its Potency was inactive

Entry under test: `CC1=C[C@@H](CNC(C)C)[C@H](C(C)C)C[C@H]1Cc1nnc(-c2ccc(C)cc2)o1` . Its Potency was 50.1 µM (active)

Entry under test: `Cc1ccccc1CNC(=O)CN1C(=O)C2(CCNCC2)Nc2ccccc21` . Its Potency was inactive

Entry under test: `COc1ccc(NC(=O)CC2CCOCC2)cc1` . Its Potency was inactive

Entry under test: Cc1noc(C2CC3(CCN(C(=O)c4cccnc4C)CC3)CN2C)n1 (stereo unspecified) . Its Potency was inactive

Entry under test: `O=C(Cn1nc2c(cc1=O)CCCC2)NCc1cccc(F)c1` . Its Potency was inactive

Entry under test: COc1ccc(S(=O)(=O)N2CCCC(Cn3cnc4cccnc43)C2)cc1 (stereo unspecified) . Its Potency was inactive

Entry under test: `Cc1cccc(C)c1NC(=O)N(C)CC1CCOCC1` . Its Potency was inactive

Entry under test: `COc1ccc(CCNC(=O)c2nnn3cc(-c4ccccc4)[nH]c(=O)c23)cc1OC` . Its Potency was inactive

Entry under test: `O=C(NCc1ccc(C(F)(F)F)cc1)c1ccc2nnc(-c3ccc(C(F)(F)F)cc3)n2c1` . Its Potency was 31.6 µM (active)

Entry under test: `COc1ccc(-c2[nH]nc3ncc(-c4cn[nH]c4)nc23)cc1F` . Its Potency was inactive

Entry under test: `COc1ccccc1Oc1ncccc1CNC(=O)c1ccc2n[nH]nc2c1` . Its Potency was inactive

---

- assay.overview: Cytotoxic Profiling in NIH 3T3 Cell Line of Diverse Libraries Using Quantitative High-Throughput Screening; also: nearly all actives have a fitted effect of over 55% in size; also: potency is read from the fitted curve at half-maximal effect
- assay.conditions: NIH 3T3 viability, CellTiter-Glo ATP luminescence, 48-72 h; series mostly up to 96.7 µM
About 4,000 (4.3%) of roughly 94,000 compounds were called active. Another 29% or so got no clear call; they are omitted. The sample holds actives, similar compounds and a random draw of the others, so the mix is not that of the screen.
reported.endpoint: Potency

Reference set, count: 5
O=C(CC1COCCN1)N1CCC(OCc2cccnc2)CC1 (stereo not given) = inactive
O=C(NCc1ccc2c(c1)OCO2)c1noc(-c2ccc(F)cc2)n1 = inactive
COc1ccc(C(=O)NCc2nnc3ccc(-c4ccc(C)cc4)nn23)cc1F = inactive
O=C1NCc2ccccc2CC12CCN(CC1CCCCC1)C2 (stereo not given) = inactive
O=C(NCCn1cnc2ccccc2c1=O)C1CC(=O)N(c2n[nH]c3ccccc23)C1 (stereo not given) = inactive

Entry under test: `CN(C)CCNC(=O)C[C@@H]1c2nc(NC(=O)c3ccc(C(C)(C)C)cc3)sc2C[C@@H]2[C@](C)(CO)[C@H](O)CC[C@]21C` . Its Potency was 25.1 µM (active)

Entry under test: `Cc1nc(-c2ccccc2OC2CN(C(=O)c3ccnn3C)C2)no1` . Its Potency was inactive

Entry under test: `O=C(N[C@H]1CCOC[C@H]1C1CCOCC1)c1scc2c1OCCO2` . Its Potency was inactive

Entry under test: `CC(C)NC(=O)N1CCN(CCCn2nc3n(c2=O)CCCC3)CC1` . Its Potency was inactive

Entry under test: `CCOC(=O)C1=CN(CC(=O)NCCc2ccc(Cl)cc2)S(=O)(=O)N=C1C` . Its Potency was inactive

Entry under test: Cc1ccc(CN2CCNC(=O)C2CC(=O)NC2(CO)CCCC2)cc1 (stereo not given) . Its Potency was inactive

Data origin: PubChem BioAssay AID1345082
